Below, each entry is listed alongside its reported kcat.
Biological target: Factor X (FX), P00742
Sequence (P00742 whole entry, looked up): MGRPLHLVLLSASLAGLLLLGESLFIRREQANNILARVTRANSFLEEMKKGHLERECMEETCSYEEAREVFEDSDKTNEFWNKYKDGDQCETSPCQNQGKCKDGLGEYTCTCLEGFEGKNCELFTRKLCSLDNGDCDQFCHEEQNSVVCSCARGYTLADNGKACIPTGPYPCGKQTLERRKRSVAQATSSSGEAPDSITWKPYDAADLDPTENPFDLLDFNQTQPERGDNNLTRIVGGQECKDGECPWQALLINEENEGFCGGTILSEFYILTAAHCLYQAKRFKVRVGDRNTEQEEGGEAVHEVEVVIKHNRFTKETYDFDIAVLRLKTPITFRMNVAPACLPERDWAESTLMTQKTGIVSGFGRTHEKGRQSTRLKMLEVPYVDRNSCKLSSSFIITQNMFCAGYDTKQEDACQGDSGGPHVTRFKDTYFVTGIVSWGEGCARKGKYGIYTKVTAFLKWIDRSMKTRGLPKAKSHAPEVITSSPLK
State the value with its unit after it.

A selection of reference data follows.
{"Protein": "FIXa-K247N/N249S/R318Y/T343R/E410N (protein) chain 1: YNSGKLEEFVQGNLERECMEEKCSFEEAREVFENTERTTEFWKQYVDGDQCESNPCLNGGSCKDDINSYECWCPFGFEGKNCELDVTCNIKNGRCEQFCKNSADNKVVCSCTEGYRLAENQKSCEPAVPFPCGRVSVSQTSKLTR chain 2: VVGGEDAKPGQFPWQVVLNGKVDAFCGGSIVNEKWIVTAAHCVETGVKITVVAGEHNIEETEHTEQNRSVIRIIPHHNYNAAINKYNHDIALLELDEPLVLNSYVTPICIADKEYTNIFLKFGSGYVSGWGRVFHKGYSALVLQYLRVPLVDRATCLRSTKFRIYNNMFCAGFHEGGRDSCQGDSGGPHVTEVEGTSFLTGIISWGEECAMKGKYGIYTKVSRYVNWIKNKTKLT", "Parameter Measured": "kcat", "Recorded Result": "6.1 s⁻¹"}
{"Protein": "FIXa-R338E/T343R/R403E (protein) chain 1: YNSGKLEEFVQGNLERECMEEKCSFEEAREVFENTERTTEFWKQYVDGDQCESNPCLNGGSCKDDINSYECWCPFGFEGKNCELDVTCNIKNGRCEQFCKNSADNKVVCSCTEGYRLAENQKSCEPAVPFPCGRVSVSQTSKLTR chain 2: VVGGEDAKPGQFPWQVVLNGKVDAFCGGSIVNEKWIVTAAHCVETGVKITVVAGEHNIEETEHTEQKRNVIRIIPHHNYNAAINKYNHDIALLELDEPLVLNSYVTPICIADKEYTNIFLKFGSGYVSGWGRVFHKGRSALVLQYLRVPLVDRATCLESTKFRIYNNMFCAGFHEGGRDSCQGDSGGPHVTEVEGTSFLTGIISWGEECAMKGKYGIYTKVSEYVNWIKEKTKLT", "Parameter Measured": "kcat", "Recorded Result": "6.9 s⁻¹"}
{"Protein": "FIXa-Y155F/K247N/N249S/R318Y/T343R (protein) chain 1: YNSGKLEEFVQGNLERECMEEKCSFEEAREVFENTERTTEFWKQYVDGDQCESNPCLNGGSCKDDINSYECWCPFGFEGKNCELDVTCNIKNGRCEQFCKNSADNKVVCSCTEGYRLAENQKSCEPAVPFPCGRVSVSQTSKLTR chain 2: VVGGEDAKPGQFPWQVVLNGKVDAFCGGSIVNEKWIVTAAHCVETGVKITVVAGEHNIEETEHTEQNRSVIRIIPHHNYNAAINKYNHDIALLELDEPLVLNSYVTPICIADKEYTNIFLKFGSGYVSGWGRVFHKGYSALVLQYLRVPLVDRATCLRSTKFRIYNNMFCAGFHEGGRDSCQGDSGGPHVTEVEGTSFLTGIISWGEECAMKGKYGIYTKVSRYVNWIKEKTKLT", "Parameter Measured": "kcat", "Recorded Result": "10.3 s⁻¹"}
{"Protein": "FIXa-Y155F/R318Y/R338E/T343R (protein) chain 1: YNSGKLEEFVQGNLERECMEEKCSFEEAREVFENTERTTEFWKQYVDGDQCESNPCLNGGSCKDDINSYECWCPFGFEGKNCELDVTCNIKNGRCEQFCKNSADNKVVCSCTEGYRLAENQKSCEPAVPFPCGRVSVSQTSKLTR chain 2: VVGGEDAKPGQFPWQVVLNGKVDAFCGGSIVNEKWIVTAAHCVETGVKITVVAGEHNIEETEHTEQKRNVIRIIPHHNYNAAINKYNHDIALLELDEPLVLNSYVTPICIADKEYTNIFLKFGSGYVSGWGRVFHKGYSALVLQYLRVPLVDRATCLESTKFRIYNNMFCAGFHEGGRDSCQGDSGGPHVTEVEGTSFLTGIISWGEECAMKGKYGIYTKVSRYVNWIKEKTKLT", "Parameter Measured": "kcat", "Recorded Result": "7.9 s⁻¹"}
{"Protein": "FIXa-R318Y/R338E/T343R (protein) chain 1: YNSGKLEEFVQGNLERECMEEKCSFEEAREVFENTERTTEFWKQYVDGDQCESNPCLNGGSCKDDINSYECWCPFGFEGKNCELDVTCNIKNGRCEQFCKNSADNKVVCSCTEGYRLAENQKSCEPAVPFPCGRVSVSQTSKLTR chain 2: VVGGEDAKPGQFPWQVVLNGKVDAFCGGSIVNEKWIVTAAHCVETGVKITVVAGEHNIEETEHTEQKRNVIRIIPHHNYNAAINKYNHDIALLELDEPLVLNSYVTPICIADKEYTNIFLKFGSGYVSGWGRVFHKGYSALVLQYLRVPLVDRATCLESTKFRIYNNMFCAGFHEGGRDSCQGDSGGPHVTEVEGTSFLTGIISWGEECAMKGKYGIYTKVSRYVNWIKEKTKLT", "Parameter Measured": "kcat", "Recorded Result": "4.5 s⁻¹"}
{"Protein": "FIXa-K247N/N249S/R318Y/T343R/R403E (protein) chain 1: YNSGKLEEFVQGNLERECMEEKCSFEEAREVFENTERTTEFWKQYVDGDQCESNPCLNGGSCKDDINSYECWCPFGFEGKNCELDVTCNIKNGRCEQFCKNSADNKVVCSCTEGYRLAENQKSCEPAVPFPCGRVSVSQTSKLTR chain 2: VVGGEDAKPGQFPWQVVLNGKVDAFCGGSIVNEKWIVTAAHCVETGVKITVVAGEHNIEETEHTEQNRSVIRIIPHHNYNAAINKYNHDIALLELDEPLVLNSYVTPICIADKEYTNIFLKFGSGYVSGWGRVFHKGYSALVLQYLRVPLVDRATCLRSTKFRIYNNMFCAGFHEGGRDSCQGDSGGPHVTEVEGTSFLTGIISWGEECAMKGKYGIYTKVSEYVNWIKEKTKLT", "Parameter Measured": "kcat", "Recorded Result": "3.7 s⁻¹"}
{"Protein": "FIXa-Y155F/K247N/N249S/R318Y/R338E (protein) chain 1: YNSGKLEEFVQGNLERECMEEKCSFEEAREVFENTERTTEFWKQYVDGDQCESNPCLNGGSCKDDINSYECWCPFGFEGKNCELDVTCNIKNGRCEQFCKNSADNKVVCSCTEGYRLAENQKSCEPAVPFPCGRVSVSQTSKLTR chain 2: VVGGEDAKPGQFPWQVVLNGKVDAFCGGSIVNEKWIVTAAHCVETGVKITVVAGEHNIEETEHTEQNRSVIRIIPHHNYNAAINKYNHDIALLELDEPLVLNSYVTPICIADKEYTNIFLKFGSGYVSGWGRVFHKGYSALVLQYLRVPLVDRATCLESTKFTIYNNMFCAGFHEGGRDSCQGDSGGPHVTEVEGTSFLTGIISWGEECAMKGKYGIYTKVSRYVNWIKEKTKLT", "Parameter Measured": "kcat", "Recorded Result": "7.5 s⁻¹"}

# input for lookup
The value of kcat measured for the protein FIXa-Y155F/K247N/N249S/R338E/T343R/R403E/E410N (protein) chain 1: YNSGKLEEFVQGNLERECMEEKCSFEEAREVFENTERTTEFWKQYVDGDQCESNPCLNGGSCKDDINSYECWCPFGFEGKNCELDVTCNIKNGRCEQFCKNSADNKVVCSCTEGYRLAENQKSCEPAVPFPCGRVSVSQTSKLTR chain 2: VVGGEDAKPGQFPWQVVLNGKVDAFCGGSIVNEKWIVTAAHCVETGVKITVVAGEHNIEETEHTEQNRSVIRIIPHHNYNAAINKYNHDIALLELDEPLVLNSYVTPICIADKEYTNIFLKFGSGYVSGWGRVFHKGRSALVLQYLRVPLVDRATCLESTKFRIYNNMFCAGFHEGGRDSCQGDSGGPHVTEVEGTSFLTGIISWGEECAMKGKYGIYTKVSEYVNWIKNKTKLT turned out to be 9.8 s⁻¹
